Biological target: A/Mississippi/03/01 H1N1 H274Y mutant NA (Influenza A virus, UniProt Q289M4, H275Y)
Type: biochemical, influenza virus A/Mississippi/03/01 H1N1
Conditions: read-out: IC50 at 10 min, 30' Pre
pIC50: −log10 of the molar value.

>  <chemical.string>
CCC(CC)[C@H](NC(C)=O)[C@@H]1[C@H](O)[C@@H](C(=O)O)C[C@H]1N=C(N)N

>  <pIC50>
7.00

$$$$

---

Molecular target: A/Mississippi/03/01 H1N1 H274Y mutant NA (Influenza A virus, UniProt Q289M4, H275Y)
Assay type: biochemical, influenza virus A/Mississippi/03/01 H1N1
Conditions: read-out: final IC50 after 60 min, No pre
pIC50: −log10 of the molar value.

>  <chemical.string>
CCC(CC)[C@H](NC(C)=O)[C@@H]1[C@H](O)[C@@H](C(=O)O)C[C@H]1N=C(N)N

>  <pIC50>
6.71

$$$$

---

Target: A/Fukui/45/04 H3N2 E119V mutant NA (Influenza A virus, UniProt C0IZY2, E119V)
Assay type: biochemical, influenza virus A/Fukui/45/04 H3N2
Details: read-out: final IC50 after 60 min, No pre
pIC50: −log10 of the molar value.

>  <chemical.string>
CCC(CC)[C@H](NC(C)=O)[C@@H]1[C@H](O)[C@@H](C(=O)O)C[C@H]1N=C(N)N

>  <pIC50>
7.67

$$$$

---

Molecular target: B/Perth/211/01 D197E mutant NA (Influenza B virus, UniProt Q3S340, D197E)
Type: biochemical, influenza B virus B/Perth/211/01
Details: read-out: final IC50 after 60 min, No pre

>  <chemical.string>
CCC(CC)[C@H](NC(C)=O)[C@@H]1[C@H](O)[C@@H](C(=O)O)C[C@H]1N=C(N)N

>  <IC50 [nM]>
75.2

$$$$

---

Molecular target: B/Perth/211/01 D197E mutant NA (Influenza B virus, UniProt Q3S340, D197E)
Format: biochemical, influenza B virus B/Perth/211/01
Details: read-out: IC50 at 10 min, No pre

>  <compound>
CCC(CC)[C@H](NC(C)=O)[C@@H]1[C@H](O)[C@@H](C(=O)O)C[C@H]1N=C(N)N [Peramivir, peramivir]

>  <IC50>
0.186 µM

$$$$

---

Molecular target: A/Mississippi/03/01 H1N1 H274Y mutant NA (Influenza A virus, UniProt Q289M4, H275Y)
Type: biochemical, influenza virus A/Mississippi/03/01 H1N1
Conditions: read-out: IC50 at 10 min, No pre
pIC50: −log10 of the molar value.

>  <compound>
CCC(CC)[C@H](NC(C)=O)[C@@H]1[C@H](O)[C@@H](C(=O)O)C[C@H]1N=C(N)N [Peramivir, peramivir]

>  <target>
A/Mississippi/03/01 H1N1 H274Y mutant NA (Influenza A virus, UniProt Q289M4, H275Y)

>  <pIC50>
6.89

$$$$

---

Target: A/Fukui/45/04 H3N2 E119V mutant NA (Influenza A virus, UniProt C0IZY2, E119V)
Format: biochemical, influenza virus A/Fukui/45/04 H3N2
Settings: read-out: IC50 at 10 min, 30' Pre

>  <molecule>
CCC(CC)[C@H](NC(C)=O)[C@@H]1[C@H](O)[C@@H](C(=O)O)C[C@H]1N=C(N)N [Peramivir, peramivir]

>  <target>
A/Fukui/45/04 H3N2 E119V mutant NA (Influenza A virus, UniProt C0IZY2, E119V)

>  <IC50 [nM]>
1.4

$$$$
